Tested on: Candida albicans
EXPERIMENTAL DETAILS: Minimum inhibitory concentration tested in vitro against Candida albicans
Type: functional
STUDY CONDITIONS: Candida albicans; read-out: MIC
Could you please mark yes (1) for values of MIC below 2 µg/mL and no (0) for values at or above it?

MOLECULE | DISCRETE LABEL
C/C=C1/NC(=O)[C@H]([C@H](C)O)NC(=O)[C@H](CCN)NC(=O)[C@H](CCCCN)NC(=O)[C@H](CC(=O)O)NC(=O)[C@@H](CCN)NC(=O)[C@@H](NC(=O)CCCCCCCCCCCCCCC)COC(=O)[C@H]([C@H](O)CCl)NC(=O)[C@H]([C@H](O)C(=O)O)NC1=O | no (0)
C/C=C1/NC(=O)[C@H]([C@H](C)O)NC(=O)[C@H](CCN)NC(=O)[C@H](CCCCN)NC(=O)[C@H](CC(=O)O)NC(=O)[C@@H](CCN)NC(=O)[C@@H](NC(=O)CC(O)C(O)CCCCCCCCCCC)COC(=O)[C@H]([C@H](O)CCl)NC(=O)[C@H]([C@H](O)C(=O)O)NC1=O (stereo partly specified) | no (0)
C/C=C1/NC(=O)[C@H]([C@H](C)O)NC(=O)[C@H](CCN)NC(=O)[C@H](CCCCN)NC(=O)[C@H](CC(=O)O)NC(=O)[C@@H](CCN)NC(=O)[C@@H](NC(=O)C[C@H](O)CCCCCCCCCCCCC)COC(=O)[C@H]([C@H](O)CCl)NC(=O)[C@H]([C@H](O)C(=O)O)NC1=O (stereo in doubt; form 1) | yes (1)
C/C=C1/NC(=O)[C@H]([C@H](C)O)NC(=O)[C@H](CCN)NC(=O)[C@H](CCCCN)NC(=O)[C@H](CC(=O)O)NC(=O)[C@@H](CCN)NC(=O)[C@@H](NC(=O)C[C@@H](O)CCCCCCCCCCCCC)COC(=O)[C@H]([C@H](O)CCl)NC(=O)[C@H]([C@H](O)C(=O)O)NC1=O | no (0)
C/C=C1/NC(=O)[C@H]([C@H](C)O)NC(=O)[C@H](CCN)NC(=O)[C@H](CCCCN)NC(=O)[C@H](CC(=O)O)NC(=O)[C@@H](CCN)NC(=O)[C@@H](NC(=O)CC(O)CCCCCCCCCCCCC)COC(=O)[C@H]([C@H](O)CCl)NC(=O)[C@H]([C@H](O)C(=O)O)NC1=O (stereo in doubt; form 1) | yes (1)
C/C=C1/NC(=O)[C@H]([C@H](C)O)NC(=O)[C@H](CCN)NC(=O)[C@H](CCCCN)NC(=O)[C@H](CC(=O)O)NC(=O)[C@@H](CCN)NC(=O)[C@@H](NC(=O)CC(O)C(O)CCCCCCCCCC)COC(=O)[C@H]([C@H](O)CCl)NC(=O)[C@H]([C@H](O)C(=O)O)NC1=O (stereo partly specified) | yes (1)

----------
Test system: Candida albicans
EXPERIMENTAL DETAILS: Minimum inhibitory concentration tested in vitro against Candida albicans
Assay type: functional
STUDY CONDITIONS: Candida albicans; read-out: MIC
Below, each entry is listed alongside its reported MIC.
MEASURED PARAMETER: MIC (µg/mL)

MOLECULE | OUTPUT UNIT | READING
C/C=C1/NC(=O)[C@H]([C@H](C)O)NC(=O)[C@H](CCN)NC(=O)[C@H](CCCCN)NC(=O)[C@H](CC(=O)O)NC(=O)[C@@H](CCN)NC(=O)[C@@H](NC(=O)CC(O)CCCCCCCCC)COC(=O)[C@H]([C@H](O)CCl)NC(=O)[C@H]([C@H](O)C(=O)O)NC1=O (stereo partly drawn) | µg/mL | 10
C/C=C1/NC(=O)[C@H]([C@H](C)O)NC(=O)[C@H](CCN)NC(=O)[C@H](CCCCN)NC(=O)[C@H](CC(=O)O)NC(=O)[C@@H](CCN)NC(=O)[C@@H](NC(=O)CC(O)CCCCCCCCCCC)COC(=O)[C@H]([C@H](O)CCl)NC(=O)[C@H]([C@H](O)C(=O)O)NC1=O (stereo partly drawn) | µg/mL | 0.156
C/C=C1/NC(=O)[C@H]([C@H](C)O)NC(=O)[C@H](CCN)NC(=O)[C@H](CCCCN)NC(=O)[C@H](CC(=O)O)NC(=O)[C@@H](CCN)NC(=O)[C@@H](NC(=O)CC(O)C(O)CCCCCCCCCCCC)COC(=O)[C@H]([C@H](O)CCl)NC(=O)[C@H]([C@H](O)C(=O)O)NC1=O (stereo partly drawn) | µg/mL | 0.078

----------
Below, each entry is listed alongside its reported MIC.
System: Aspergillus fumigatus
EXPERIMENTAL DETAILS: Minimum inhibitory concentration tested in vitro against Aspergillus fumigatus
Assay type: functional
STUDY CONDITIONS: Aspergillus fumigatus; read-out: MIC

COMPOUND | OP | MIC [µg/mL]
C/C=C1/NC(=O)[C@H]([C@H](C)O)NC(=O)[C@H](CCN)NC(=O)[C@H](CCCCN)NC(=O)[C@H](CC(=O)O)NC(=O)[C@@H](CCN)NC(=O)[C@@H](NC(=O)CC(O)C(O)CCCCCCCCCCCC)COC(=O)[C@H]([C@H](O)CCl)NC(=O)[C@H]([C@H](O)C(=O)O)NC1=O (some centres not stated) | = | 1.25
C/C=C1/NC(=O)[C@H]([C@H](C)O)NC(=O)[C@H](CCN)NC(=O)[C@H](CCCCN)NC(=O)[C@H](CC(=O)O)NC(=O)[C@@H](CCN)NC(=O)[C@@H](NC(=O)CC(O)CCCCCCCCCCC)COC(=O)[C@H]([C@H](O)CCl)NC(=O)[C@H]([C@H](O)C(=O)O)NC1=O (some centres not stated) | = | 10
C/C=C1/NC(=O)[C@H]([C@H](C)O)NC(=O)[C@H](CCN)NC(=O)[C@H](CCCCN)NC(=O)[C@H](CC(=O)O)NC(=O)[C@@H](CCN)NC(=O)[C@@H](NC(=O)CC(O)C(O)CCCCCCCCCC)COC(=O)[C@H]([C@H](O)CCl)NC(=O)[C@H]([C@H](O)C(=O)O)NC1=O (some centres not stated) | = | 10
C/C=C1/NC(=O)[C@H]([C@H](C)O)NC(=O)[C@H](CCN)NC(=O)[C@H](CCCCN)NC(=O)[C@H](CC(=O)O)NC(=O)[C@@H](CCN)NC(=O)[C@@H](NC(=O)C[C@@H](O)CCCCCCCCCCCCC)COC(=O)[C@H]([C@H](O)CCl)NC(=O)[C@H]([C@H](O)C(=O)O)NC1=O | = | 20
C/C=C1/NC(=O)[C@H]([C@H](C)O)NC(=O)[C@H](CCN)NC(=O)[C@H](CCCCN)NC(=O)[C@H](CC(=O)O)NC(=O)[C@@H](CCN)NC(=O)[C@@H](NC(=O)CC(O)CCCCCCCCCCCCC)COC(=O)[C@H]([C@H](O)CCl)NC(=O)[C@H]([C@H](O)C(=O)O)NC1=O (stereo in doubt; form 1) | = | 1.25
C/C=C1/NC(=O)[C@H]([C@H](C)O)NC(=O)[C@H](CCN)NC(=O)[C@H](CCCCN)NC(=O)[C@H](CC(=O)O)NC(=O)[C@@H](CCN)NC(=O)[C@@H](NC(=O)CC(O)C(O)CCCCCCCCCCC)COC(=O)[C@H]([C@H](O)CCl)NC(=O)[C@H]([C@H](O)C(=O)O)NC1=O (some centres not stated) | > | 20
C/C=C1/NC(=O)[C@H]([C@H](C)O)NC(=O)[C@H](CCN)NC(=O)[C@H](CCCCN)NC(=O)[C@H](CC(=O)O)NC(=O)[C@@H](CCN)NC(=O)[C@@H](NC(=O)CC(O)CCCCCCCCC)COC(=O)[C@H]([C@H](O)CCl)NC(=O)[C@H]([C@H](O)C(=O)O)NC1=O (some centres not stated) | > | 20

Entry source: ChEMBL document CHEMBL1133996
